- System: HeLa (cervical carcinoma)
- test.description: MTT proliferation assay, HeLa cells
- Assay type: cell-based, human
- condition.description: 72 h, read-out: IC50 (50% growth inhibition) HeLa
parameter.measured: IC50 (µM)
Quick reminder: number only, in µM, skip the unit.

Bench note: what IC50 did COc1ccc2c(Cn3cnc(C(N)=O)n3)cc(=O)oc2c1 show?
35.5
